molecular target: Beta-lactamase (Pseudomonas aeruginosa (strain ATCC 15692 / PAO1 / 1C / PRS 101 / LMG12228), UniProt P24735); assay: Inhibition of Pseudomonas aeruginosa 18SH Beta-lactamase.
Sequence (P24735 whole entry): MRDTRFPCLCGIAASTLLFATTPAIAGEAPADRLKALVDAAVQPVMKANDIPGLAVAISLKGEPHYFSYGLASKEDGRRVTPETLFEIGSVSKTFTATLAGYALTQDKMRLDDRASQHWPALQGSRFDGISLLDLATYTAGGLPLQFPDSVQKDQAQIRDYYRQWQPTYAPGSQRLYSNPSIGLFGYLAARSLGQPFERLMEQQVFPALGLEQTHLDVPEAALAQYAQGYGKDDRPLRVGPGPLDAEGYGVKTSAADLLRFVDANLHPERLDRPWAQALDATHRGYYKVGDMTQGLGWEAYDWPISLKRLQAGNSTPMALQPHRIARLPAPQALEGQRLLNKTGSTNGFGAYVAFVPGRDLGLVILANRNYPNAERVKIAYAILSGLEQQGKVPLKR
Classification by IC50 | ranges: L (below 100 nM), M (100 nM to below 600 nM), H (600 nM or more)

[
  {
    "COMPOUND": "O=C1NCC[C@@H]1NC(=O)N1CC[C@@H]2[C@H]1C(=O)N2S(=O)(=O)[O-].[Na+]",
    "CLASS_LABEL": "H"
  },
  {
    "COMPOUND": "O=C(OCc1ccccc1)N1C[C@H](F)[C@@H]2[C@H]1C(=O)N2S(=O)(=O)[O-].[Na+]",
    "CLASS_LABEL": "M"
  }
]

Query: Classify this compound: `Cn1cnnc1SCC(=O)N1CC[C@@H]2[C@H]1C(=O)N2S(=O)(=O)[O-].[Na+]`
Result: H

Query: Band assignment needed for `O=C(/C=C/c1c[nH]cn1)N1CC[C@@H]2[C@H]1C(=O)N2S(=O)(=O)[O-].[Na+]` please.
Result: M

Query: State the class of the compound shown: `NC(=O)c1ccc(NC(=O)N2CC[C@@H]3[C@H]2C(=O)N3S(=O)(=O)[O-])cc1.[Na+]`
Result: M

Query: Classify this compound: `Cc1nn(C)c(SCC(=O)N2CC[C@@H]3[C@H]2C(=O)N3S(=O)(=O)[O-])nc1=O.[Na+]`
Result: L

Query: Which of the defined bands does the recorded IC50 of `CC(C)(C)OC(=O)N1CC[C@@H]2[C@H]1C(=O)N2S(=O)(=O)[O-].[Na+]` sit within?
Result: H

====

molecular target: Beta-lactamase (Pseudomonas aeruginosa (strain ATCC 15692 / PAO1 / 1C / PRS 101 / LMG12228))
Response key: satisfied means Kon >= 2 s⁻¹; not satisfied means Kon < 2 s⁻¹.

The following molecules have reported results that may help.
[
  {
    "MOLECULE": "O=C(Nc1ccc(O)cc1)N1CC[C@@H]2[C@H]1C(=O)N2S(=O)(=O)[O-].[Na+]",
    "CLASS_LABEL": "not satisfied"
  },
  {
    "MOLECULE": "[NH-]C(=O)c1ccc[n+](CC(=O)N2CC[C@@H]3[C@H]2C(=O)N3S(=O)(=O)[O-])c1.[Na+]",
    "CLASS_LABEL": "not satisfied"
  },
  {
    "MOLECULE": "Cn1nnnc1S[C@@H]1CN(C(=O)OCc2ccccc2)[C@@H]2C(=O)N(S(=O)(=O)[O-])[C@@H]21.[Na+]",
    "CLASS_LABEL": "satisfied"
  }
]

Query: Given the entry NC(C(=O)N1CC[C@@H]2[C@H]1C(=O)N2S(=O)(=O)[O-])c1ccc(O)cc1.[Na+] (some centres not stated) , answer whether its Kon meets or surpasses 2 s⁻¹.
Result: satisfied

Query: Is reported Kon greater than or equal to 2 s⁻¹ here: `O=C(NC1CCNCC1)N1CC[C@@H]2[C@H]1C(=O)N2S(=O)(=O)[O-].[Na+]`
Result: not satisfied

Query: Does Kon meet or surpass 2 s⁻¹ for `CC(C)(C)OC(=O)N1CC[C@@H]2[C@H]1C(=O)N2S(=O)(=O)[O-].[Na+]` ?
Result: satisfied

Query: I'd appreciate it if you could say whether `CC(C)(C)OC(=O)N1CCC[C@@H]2[C@H]1C(=O)N2S(=O)(=O)[O-].[Na+]` has Kon at least equal to 2 s⁻¹.
Result: not satisfied
